Each item that follows carries a reported log10(EC50).
- experimental-protocol: Induction of autophagy in human H4-LC3 cells assessed as number of spots of LC3-GFP after 4 hrs by DAPI staining
- Type: functional, cell-based
outcome-measure: log10(EC50) (log10 of the value in µM)

In [3]: df
Out[3]:
                                    molecule  outcome_measure  observed
 0  O=S1(=O)Nc2ccccc2CN1C1CCN(CCCC(c2ccc(F)cc2)c2ccc(F)cc2)CC1      log10(EC50)      1.34
 1  O=c1oc2ccccc2n1C1CCN(CCCC(c2ccc(F)cc2)c2ccc(F)cc2)CC1      log10(EC50)      0.91
 2  Fc1ccc(C(CCCN2CCC(N3CCc4ccccc4C3)CC2)c2ccc(F)cc2)cc1      log10(EC50)      0.78
 3  N#CC(CCCN1CCC(N2Cc3ccccc3C2)CC1)(c1ccccc1)c1ccccc1      log10(EC50)      0.85
 4  Fc1ccc(C(CCCN2CCC(n3cnc4ccccc43)CC2)c2ccc(F)cc2)cc1      log10(EC50)      0.62
 5  N#CC(CCCN1CCC(N2CCc3ccccc32)CC1)(c1ccccc1)c1ccccc1      log10(EC50)      0.65
 6  Fc1ccc(C(CCCN2CCC(c3nc4ccccc4[nH]3)CC2)c2ccc(F)cc2)cc1      log10(EC50)      0.60
 7  N#CC(CCCN1CCC(c2c[nH]c3ccccc23)CC1)(c1ccccc1)c1ccccc1      log10(EC50)      0.41
 8  O=S1(=O)NCc2ccccc2N1C1CCN(CCCC(c2ccc(F)cc2)c2ccc(F)cc2)CC1      log10(EC50)      1.01
 9  O=c1c2ccccc2nnn1C1CCN(CCCC(c2ccc(F)cc2)c2ccc(F)cc2)CC1      log10(EC50)      0.89
10  FC(F)(F)c1ccc(C(CCCN2CCC(N3CCc4ccccc43)CC2)c2ccc(C(F)(F)F)cc2)cc1      log10(EC50)      0.08
11  O=c1[nH]c2ccccc2c(=O)n1C1CCN(CCCC(c2ccc(F)cc2)c2ccc(F)cc2)CC1      log10(EC50)      0.45
12  O=[N+]([O-])c1ccc2c(cnn2C2CCN(CCCC(c3ccc(F)cc3)c3ccc(F)cc3)CC2)c1      log10(EC50)      0.65
13  N#CC(CCCN1CCC(c2nc3ccccc3[nH]2)CC1)(c1ccccc1)c1ccccc1      log10(EC50)      0.93
14  Fc1ccc(C(CCCN2CCC(N3Cc4ccccc4C3)CC2)c2ccc(F)cc2)cc1      log10(EC50)      0.61
15  O=C1Nc2ccccc2CN1C1CCN(CCCC(c2ccc(F)cc2)c2ccc(F)cc2)CC1      log10(EC50)      0.11

----------
- experimental-protocol: Induction of autophagy in human H4-LC3 cells assessed as number of spots of LC3-GFP after 4 hrs by DAPI staining
- Assay type: functional, cell-based
Binarize EC50 at 3 µM; below is YES, at or above is NO.

In [3]: df
Out[3]:
                                   molecule  category_label
0  Fc1ccc(C(CCCN2CCC(c3nc4ccccc4o3)CC2)c2ccc(F)cc2)cc1              NO
1  O=C1NCc2ccccc2N1C1CCN(CCCC(c2ccc(F)cc2)c2ccc(F)cc2)CC1             YES
2  FC(F)(F)c1ccc(C(CCCN2CCC(N3Cc4ccccc4C3)CC2)c2ccc(C(F)(F)F)cc2)cc1             YES
3  O=c1[nH]c2ccccc2n1C1CCN(CCCC(c2ccc(F)cc2)c2ccc(F)cc2)CC1 [PIMOZIDE]              NO
4  FC(F)(F)c1ccc(C(CCCN2CCC(c3c[nH]c4ccccc34)CC2)c2ccc(C(F)(F)F)cc2)cc1             YES
